From: the NIST ThermoML archive (doi:10.1021/je200883w)

- experimental-conditions: 343.15 K; 101.33 kPa; Liquid; Concentric cylinders viscometry
Numbers after ± are expanded uncertainties.
Collected viscosity values appear next to each entry.

Solved cases below.
> print(dat)
                                   molecule  observed.measurement
1  CCCC[N+]1(C)CCCC1.O=S(=O)([N-]S(=O)(=O)C(F)(F)F)C(F)(F)F    16.44 ± 0.38 mPa·s
2  CCCCCCOS(=O)(=O)[O-].CC[n+]1ccn(C)c1 [3-ethyl-1-methyl-1H-imidazolium hexyl sulfate]    39.91 ± 0.94 mPa·s
3  CCCC[N+]1(C)CCCC1.O=S(=O)([O-])C(F)(F)F [1-butyl-1-methylpyrrolidinium trifluoromethanesulfonate]    27.84 ± 0.65 mPa·s
4  CCCC[N+]1(C)CCCC1.FC(F)(F)C(F)(F)[P-](F)(F)(F)(C(F)(F)C(F)(F)F)C(F)(F)C(F)(F)F    29.49 ± 0.69 mPa·s
5  CCCCn1cc[n+](C)c1C.O=S(=O)([N-]S(=O)(=O)C(F)(F)F)C(F)(F)F    18.17 ± 0.42 mPa·s

Request: Consider the molecule COCC[N+]1(C)CCCC1.O=S(=O)([N-]S(=O)(=O)C(F)(F)F)C(F)(F)F . State its measured viscosity.
Response: 13.32 ± 0.31 mPa·s

Request: Give the measured viscosity for CCCCCCCCCCCCCC[P+](CCCCCC)(CCCCCC)CCCCCC.FC(F)(F)C(F)(F)[P-](F)(F)(F)(C(F)(F)C(F)(F)F)C(F)(F)C(F)(F)F
Response: 43.71 ± 1 mPa·s

Request: Indicate its recorded viscosity; the molecule in question is CCOS(=O)(=O)[O-].CCn1cc[n+](C)c1 [1-ethyl-3-methylimidazolium ethyl sulfate]
Response: 18.91 ± 0.44 mPa·s

====

Reported mass density values for a set of molecules
- experimental-conditions: 368.15 K; 101.33 kPa; Liquid; Vibrating tube method
State just the number; it will be interpreted in kg/m3.

Sample records with mass density:
> print(dat)
                                   molecule  observed.measurement
1  CCOS(=O)(=O)[O-].CCn1cc[n+](C)c1 [1-ethyl-3-methylimidazolium ethyl sulfate]                1191.1
2  CCCCCCOS(=O)(=O)[O-].CC[n+]1ccn(C)c1 [3-ethyl-1-methyl-1H-imidazolium hexyl sulfate]                1085.1
3  CCCCn1cc[n+](C)c1C.O=S(=O)([N-]S(=O)(=O)C(F)(F)F)C(F)(F)F                1355.5
4  CCCC[N+]1(C)CCCC1.O=S(=O)([O-])C(F)(F)F [1-butyl-1-methylpyrrolidinium trifluoromethanesulfonate]                1202.5
5  CCCC[N+]1(C)CCCC1.FC(F)(F)C(F)(F)[P-](F)(F)(F)(C(F)(F)C(F)(F)F)C(F)(F)C(F)(F)F                1510.4
6  CCCCCCCCCCCCCC[P+](CCCCCC)(CCCCCC)CCCCCC.FC(F)(F)C(F)(F)[P-](F)(F)(F)(C(F)(F)C(F)(F)F)C(F)(F)C(F)(F)F                1124.9
7  COCC[N+]1(C)CCCC1.O=S(=O)([N-]S(=O)(=O)C(F)(F)F)C(F)(F)F                1389.9

Moving on to another molecule below.
Request: Give the reported mass density for this molecule. CCCC[N+]1(C)CCCC1.O=S(=O)([N-]S(=O)(=O)C(F)(F)F)C(F)(F)F
Response: 1334.3
